- Target entity: T1, Pum PUM-HD WT (EMSA);Nos ZC WT (EMSA) (Drosophila melanogaster?;Drosophila …, UniProt P25822;P25724 1091-1426;289-401, |)
- T1 sequence 1: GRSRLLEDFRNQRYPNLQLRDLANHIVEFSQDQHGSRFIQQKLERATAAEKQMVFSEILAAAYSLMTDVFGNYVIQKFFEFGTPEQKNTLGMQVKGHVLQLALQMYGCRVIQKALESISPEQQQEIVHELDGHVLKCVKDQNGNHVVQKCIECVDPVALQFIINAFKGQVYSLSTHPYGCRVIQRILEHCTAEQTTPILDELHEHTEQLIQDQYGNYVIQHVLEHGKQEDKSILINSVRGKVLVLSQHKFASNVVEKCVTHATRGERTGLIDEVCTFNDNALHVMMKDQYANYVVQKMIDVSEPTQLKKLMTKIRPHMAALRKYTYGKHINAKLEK
- T1 sequence 2: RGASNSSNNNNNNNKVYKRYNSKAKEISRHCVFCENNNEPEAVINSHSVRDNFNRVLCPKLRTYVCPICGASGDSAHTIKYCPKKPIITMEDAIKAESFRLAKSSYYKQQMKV
- Assay method text: EMSA; Pum titrated, 400 nM Nos ZC constant; EMSA: 50 mM Tris-HCl pH 7.6, 150 mM NaCl, 2 mM DTT, 2 ug/mL BSA, 0.01% Igepal CA-630, 0.02% bromophenol blue, 20% glycerol, 3 h at 4 C; 1 nM Cy5 RNA or 0.3 nM 32P RNA
- Condition summary: protein: recombinant;recombinant, tags: N-terminal 3xFLAG, Halo-tag removed by TEV;C-terminal V5, copies: 1;1, label: 5' 32P (EMSA), none (crystal)
Measure name: pKd
In simple prose, pKd is minus the logarithm base ten of a concentration in moles per litre.

The binder AAAUUGUACAUAAGCC (ssRNA) [hb NRE2 RNA 16-nt] showed pKd equal to 8.06

Data origin: paper PMC4995099
